Target Or Test System: AR protein (Homo sapiens, UniProt P10275, T878A)
Construct: host or cells: LNCaP FGC
Sequence (P10275 1-920 T878A): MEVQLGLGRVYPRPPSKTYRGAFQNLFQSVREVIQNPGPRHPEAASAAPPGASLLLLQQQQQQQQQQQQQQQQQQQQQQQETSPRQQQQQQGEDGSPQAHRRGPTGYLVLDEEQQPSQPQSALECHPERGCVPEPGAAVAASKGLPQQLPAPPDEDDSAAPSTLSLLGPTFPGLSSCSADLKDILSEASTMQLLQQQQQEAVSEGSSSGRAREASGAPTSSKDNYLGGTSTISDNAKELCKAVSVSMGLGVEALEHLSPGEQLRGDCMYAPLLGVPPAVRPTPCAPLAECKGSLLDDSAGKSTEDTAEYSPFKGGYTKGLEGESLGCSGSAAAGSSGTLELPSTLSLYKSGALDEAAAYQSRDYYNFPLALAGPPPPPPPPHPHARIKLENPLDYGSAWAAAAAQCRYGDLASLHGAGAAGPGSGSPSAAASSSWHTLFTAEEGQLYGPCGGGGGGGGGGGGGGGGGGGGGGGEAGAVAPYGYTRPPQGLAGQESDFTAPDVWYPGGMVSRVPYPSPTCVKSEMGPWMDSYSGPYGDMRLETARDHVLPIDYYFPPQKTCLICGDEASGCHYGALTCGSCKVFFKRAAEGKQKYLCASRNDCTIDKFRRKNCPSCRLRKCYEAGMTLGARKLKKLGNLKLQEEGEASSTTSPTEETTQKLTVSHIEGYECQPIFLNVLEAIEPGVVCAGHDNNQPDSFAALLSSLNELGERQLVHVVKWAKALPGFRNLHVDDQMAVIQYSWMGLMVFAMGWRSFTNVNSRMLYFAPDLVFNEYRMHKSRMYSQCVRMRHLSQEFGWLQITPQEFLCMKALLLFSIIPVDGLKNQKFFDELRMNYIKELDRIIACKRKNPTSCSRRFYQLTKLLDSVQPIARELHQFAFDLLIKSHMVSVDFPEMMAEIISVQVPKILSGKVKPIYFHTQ
Method Summary: Degradation of AR protein in LNCAP cells (Western blot, 8 h)
Format: cell-based
Stated Conditions: LNCaP FGC cells, 10 nM
Readout: Degradation rates of the AR protein in LNCAP cells, 10 nM (%)

INSERT INTO measurements (molecule, endpoint_unit, reported_value) VALUES
  ('CC1(CN2CCC3(CC2)COc2c3ccc3c2C(=O)N(C2CCC(=O)NC2=O)C3)CCN(c2ccc(C(=O)N[C@H]3CC[C@H](Oc4ccc(C#N)c(Cl)c4)CC3)nn2)CC1 (relative stereo)', '%', 47),
  ('N#Cc1ccc(O[C@H]2CC[C@H](NC(=O)c3ccc(N4CCC(CN5CCC6(CC5)COc5c6ccc6c5C(=O)N(C5CCC(=O)NC5=O)C6)CC4)nn3)CC2)cc1Cl (relative stereo)', '%', 75),
  ('COc1cc(O[C@H]2C(C)(C)[C@H](NC(=O)c3ccc(N4CCC(CN5CCC6(CC5)COc5c6ccc6c5C(=O)N(C5CCC(=O)NC5=O)C6)CC4)cc3)C2(C)C)ccc1C#N (relative stereo)', '%', 58),
  ('COC1(CN2CCC3(CC2)COc2c3ccc3c2C(=O)N(C2CCC(=O)NC2=O)C3)CCN(c2ccc(C(=O)N[C@H]3CC[C@H](Oc4ccc(C#N)c(Cl)c4)CC3)nn2)CC1 (relative stereo)', '%', 38),
  ('N#Cc1ccc(O[C@H]2CC[C@H](NC(=O)c3ccc(N4CCC(F)(CN5CCC6(CC5)COc5c6ccc6c5C(=O)N(C5CCC(=O)NC5=O)C6)CC4)nn3)CC2)cc1Cl (relative stereo)', '%', 33);

These measurements were taken from patent EP4656642A1.
